Measured pIC50 accompanies every entry in the list below.
# System: 134 cancer cell lines
# Run Description: Cell viability assay (ATPlite, 72 hours), IC50 on cancer cell line panel
# Reported Conditions: Hs766T, read-out: IC50 in cell proliferation assay
pIC50: −log10 of the molar value.

Solved entries (count: 2):
Compound: C=CC(=O)N1CCC([C@@H]2CCNc3c(C(N)=O)c(-c4ccc(Oc5ccccc5)cc4)nn32)CC1 [zanubrutinib]
Observed Measurement: < 4.50
--
Compound: CCn1c(=O)c(-c2cc(NC(=O)Nc3ccccc3)c(F)cc2Br)cc2cnc(NC)cc21 [ripretinib]
Observed Measurement: 5.33

// next entry
Exercise: Requested field: pIC50. Item: Cn1cc(-c2cc3c(N4CCN(c5ncc([C@@](C)(N)c6ccc(F)cc6)cn5)CC4)ncnn3c2)cn1 [avapritinib]
Key: < 4.50

----------
# Measured On: UniProtKB Q9UKE5
# Sequence (Q9UKE5 whole entry): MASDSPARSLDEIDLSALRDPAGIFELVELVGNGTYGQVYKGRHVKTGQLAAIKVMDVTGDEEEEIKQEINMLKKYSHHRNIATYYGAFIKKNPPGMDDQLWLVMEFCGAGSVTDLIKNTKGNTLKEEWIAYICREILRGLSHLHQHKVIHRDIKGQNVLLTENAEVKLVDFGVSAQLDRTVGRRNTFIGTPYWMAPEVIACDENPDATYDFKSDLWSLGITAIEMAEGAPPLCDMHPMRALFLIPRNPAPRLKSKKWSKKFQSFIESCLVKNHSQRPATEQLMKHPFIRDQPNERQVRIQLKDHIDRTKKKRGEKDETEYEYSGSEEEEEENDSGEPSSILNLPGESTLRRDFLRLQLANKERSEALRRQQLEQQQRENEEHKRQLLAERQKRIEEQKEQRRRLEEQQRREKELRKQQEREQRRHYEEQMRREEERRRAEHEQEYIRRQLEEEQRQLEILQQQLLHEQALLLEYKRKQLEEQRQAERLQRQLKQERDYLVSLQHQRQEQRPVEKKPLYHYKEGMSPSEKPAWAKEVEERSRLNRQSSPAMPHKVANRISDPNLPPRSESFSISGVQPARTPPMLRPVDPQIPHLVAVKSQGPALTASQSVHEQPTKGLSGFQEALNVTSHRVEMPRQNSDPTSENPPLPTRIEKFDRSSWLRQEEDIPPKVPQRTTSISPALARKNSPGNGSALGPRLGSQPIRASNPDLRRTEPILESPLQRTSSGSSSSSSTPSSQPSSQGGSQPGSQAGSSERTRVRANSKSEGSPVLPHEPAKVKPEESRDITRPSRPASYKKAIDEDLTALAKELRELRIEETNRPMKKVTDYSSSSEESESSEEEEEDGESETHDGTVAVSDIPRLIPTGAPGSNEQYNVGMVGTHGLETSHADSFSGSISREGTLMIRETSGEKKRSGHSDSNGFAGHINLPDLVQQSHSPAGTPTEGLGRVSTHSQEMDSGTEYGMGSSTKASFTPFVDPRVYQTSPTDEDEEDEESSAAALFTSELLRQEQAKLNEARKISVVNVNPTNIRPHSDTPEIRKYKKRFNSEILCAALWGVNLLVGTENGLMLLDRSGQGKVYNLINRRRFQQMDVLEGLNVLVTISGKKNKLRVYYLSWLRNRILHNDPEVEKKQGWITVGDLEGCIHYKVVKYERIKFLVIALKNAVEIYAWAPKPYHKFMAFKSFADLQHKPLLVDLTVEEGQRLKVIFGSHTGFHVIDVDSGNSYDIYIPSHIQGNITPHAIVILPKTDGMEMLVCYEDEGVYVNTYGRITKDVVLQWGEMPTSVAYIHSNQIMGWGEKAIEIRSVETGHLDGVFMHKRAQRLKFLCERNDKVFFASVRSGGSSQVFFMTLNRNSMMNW
# Run Description: Kinase panel profiling at 1 µmol/L (MSA or IMAP), percentage inhibition
# Type: biochemical
# Reported Conditions: kinase TNIK; 1 µmol/L single concentration; read-out: %-inhibition at 1 µmol/L, TNIK
// reported inhibition at 1 µM per item
Express your answer in %, writing the number without its unit.

Please review the following examples before continuing.
Given Smiles: Cc1cc(Nc2ncnc3ccc(NC4=NC(C)(C)CO4)cc23)ccc1Oc1ccn2ncnc2c1
Measured On: UniProtKB Q9UKE5
Units Of Measure: %
inhibition at 1 µM: 4
//
Given Smiles: CN1CCN(c2ccc(C(=O)Nc3n[nH]c4ccc(Cc5cc(F)cc(F)c5)cc34)c(NC3CCOCC3)c2)CC1
Measured On: UniProtKB Q9UKE5
Units Of Measure: %
inhibition at 1 µM: 20

Exercise: Could you share which inhibition at 1 µM value was measured for `CCN1C(=O)N(c2c(F)c(OC)cc(OC)c2F)Cc2cnc3[nH]c(CN4CCOCC4)cc3c21` ?
Key: 4

Exercise: Form field: reported inhibition at 1 µM of `Cn1cc(-c2cc3c(N4CCN(c5ncc([C@@](C)(N)c6ccc(F)cc6)cn5)CC4)ncnn3c2)cn1`
Key: 30

Exercise: // query inhibition at 1 µM value for entry `CO[C@]1(C(=O)N[C@@H](C)c2ccc(-n3cc(F)cn3)nc2)CC[C@H](c2nc(C)cc(Nc3cc(C)[nH]n3)n2)CC1`
Key: 6.58

Exercise: What does the data say about its inhibition at 1 µM? Entry: `O=C(Nc1cnn2ccc(N3CCC[C@@H]3c3cc(F)ccc3F)nc12)N1CC[C@H](O)C1`
Key: 1.8

Exercise: What value of inhibition at 1 µM has been reported for the following compound? `CCc1nc(C(N)=O)c(Nc2ccc(N3CCC(N4CCN(C)CC4)CC3)c(OC)c2)nc1NC1CCOCC1`
Key: 94

----------
# System: 134 cancer cell lines
# Run Description: Cell viability assay (ATPlite, 72 hours), IC50 on cancer cell line panel
# Reported Conditions: Homo sapiens, C-33-A, read-out: IC50 in cell proliferation assay, cell line C-33 A
pIC50: −log10 of the molar value.
Assign condition met to entries whose pIC50 meets or exceeds 7; assign condition not met to the rest.

Answered examples (5):
Compound: Cc1cc(Nc2ncc(Cl)c(Nc3ccccc3S(=O)(=O)C(C)C)n2)c(OC(C)C)cc1C1CCNCC1 [ceritinib]
Measured On: 134 cancer cell lines
Cat: condition not met

Compound: O=C(c1ccc(F)c(F)c1Nc1ccc(I)cc1F)N1CC(O)([C@@H]2CCCCN2)C1 [cobimetinib]
Measured On: 134 cancer cell lines
Cat: condition met

Compound: COc1cc2ncnc(Nc3ccc(F)c(Cl)c3)c2cc1NC(=O)/C=C/CN1CCCCC1 [dacomitinib]
Measured On: 134 cancer cell lines
Cat: condition met

Compound: O=C(Nc1cnn2ccc(N3CCC[C@@H]3c3cc(F)ccc3F)nc12)N1CC[C@H](O)C1 [larotrectinib]
Measured On: 134 cancer cell lines
Cat: condition not met

Compound: FC(F)(F)c1ccc(CNc2ccc(Cc3c[nH]c4ncc(Cl)cc34)cn2)cn1 [pexidartinib]
Measured On: 134 cancer cell lines
Cat: condition not met

Alright, here's another compound for you.
Exercise: Confirm if pIC50 reported for the compound CN1CCN(c2ccc(C(=O)Nc3n[nH]c4ccc(Cc5cc(F)cc(F)c5)cc34)c(NC3CCOCC3)c2)CC1 [entrectinib] is 7 or above.
Key: condition not met

----------
# Measured On: panel of 255 wild-type kinases (Homo sapiens)
# Run Description: Kinase panel profiling at 1 µmol/L (MSA or IMAP), percentage inhibition
# Format: biochemical
# Reported Conditions: kinase HIPK2; 1 µmol/L single concentration; read-out: %-inhibition at 1 µmol/L, HIPK2
Measured inhibition at 1 µM values are reported for all entries that follow.
Return type: number; implicit unit %.

Exercise: Value lookup for inhibition at 1 µM; key = `Cn1cc(-c2cc3c(N4CCN(c5ncc([C@@](C)(N)c6ccc(F)cc6)cn5)CC4)ncnn3c2)cn1`
Key: 4

Exercise: Any idea what its inhibition at 1 µM is? The compound is `CCN1CCN(c2ccc(Nc3cc(N(C)C(=O)Nc4c(Cl)c(OC)cc(OC)c4Cl)ncn3)cc2)CC1`
Key: -0.912

Exercise: // returns reported inhibition at 1 µM for input `Cc1cc(Nc2ncnc3ccc(NC4=NC(C)(C)CO4)cc23)ccc1Oc1ccn2ncnc2c1`
Key: 6

Exercise: Recorded inhibition at 1 µM of `Cc1nc(NC(=O)N2CCC[C@H]2C(N)=O)sc1-c1ccnc(C(C)(C)C(F)(F)F)c1` , please.
Key: 3.33

Exercise: Which inhibition at 1 µM value is on record for `CCn1c(=O)c(-c2cc(NC(=O)Nc3ccccc3)c(F)cc2Br)cc2cnc(NC)cc21` ?
Key: 0.0334

Exercise: Return reported inhibition at 1 µM; argument: `C[C@H](Nc1ncnc2nc[nH]c12)c1cc2cccc(Cl)c2c(=O)n1-c1ccccc1`
Key: 0.116

Exercise: What inhibition at 1 µM value was documented for this compound, `CN1CCN(c2ccc(C(=O)Nc3n[nH]c4ccc(Cc5cc(F)cc(F)c5)cc34)c(NC3CCOCC3)c2)CC1` ?
Key: 8

----------
# Measured On: UniProt:P51812
# Sequence (P51812 whole entry): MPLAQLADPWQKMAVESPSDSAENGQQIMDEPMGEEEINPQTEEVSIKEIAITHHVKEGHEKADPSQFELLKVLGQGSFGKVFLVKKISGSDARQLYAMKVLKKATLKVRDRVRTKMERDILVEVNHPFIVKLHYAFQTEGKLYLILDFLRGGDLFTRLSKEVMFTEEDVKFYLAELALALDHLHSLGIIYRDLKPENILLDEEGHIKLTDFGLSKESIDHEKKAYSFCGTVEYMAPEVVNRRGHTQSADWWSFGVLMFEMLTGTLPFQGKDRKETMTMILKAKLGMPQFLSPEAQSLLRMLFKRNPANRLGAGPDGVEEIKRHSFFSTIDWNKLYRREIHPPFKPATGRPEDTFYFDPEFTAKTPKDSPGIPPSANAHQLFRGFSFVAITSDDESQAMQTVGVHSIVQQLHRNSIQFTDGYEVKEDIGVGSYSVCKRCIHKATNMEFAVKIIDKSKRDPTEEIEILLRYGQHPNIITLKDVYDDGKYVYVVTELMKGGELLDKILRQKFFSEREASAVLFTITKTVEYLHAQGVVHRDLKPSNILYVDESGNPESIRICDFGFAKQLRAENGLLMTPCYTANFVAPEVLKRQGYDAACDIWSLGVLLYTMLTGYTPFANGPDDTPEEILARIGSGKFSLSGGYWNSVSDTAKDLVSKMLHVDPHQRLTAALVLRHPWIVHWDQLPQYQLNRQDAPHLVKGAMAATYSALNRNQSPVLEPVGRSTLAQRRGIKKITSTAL
# Run Description: Kinase panel profiling at 1 µmol/L (MSA or IMAP), percentage inhibition
# Format: biochemical
# Reported Conditions: kinase RSK2; 1 µmol/L single concentration; read-out: %-inhibition at 1 µmol/L, RSK2
Measurement Label: inhibition at 1 µM
Give the figure together with its unit, number first.

Compound: FC(F)(F)c1ccc(CNc2ccc(Cc3c[nH]c4ncc(Cl)cc34)cn2)cn1 [pexidartinib]
Measured On: UniProt:P51812
Observed Measurement: 14%
//
Compound: COc1ccc(CN2C3CC2CN(c2ccc(-c4cc(OCC(C)(C)O)cn5ncc(C#N)c45)cn2)C3)cn1 [selpercatinib]
Measured On: UniProt:P51812
Observed Measurement: 47%
//
Compound: Cc1cc(Nc2ncnc3ccc(NC4=NC(C)(C)CO4)cc23)ccc1Oc1ccn2ncnc2c1 [tucatinib]
Measured On: UniProt:P51812
Observed Measurement: -3%
//
Compound: COC(=O)N[C@@H](C)CNc1nccc(-c2cn(C(C)C)nc2-c2cc(Cl)cc(NS(C)(=O)=O)c2F)n1 [encorafenib]
Measured On: UniProt:P51812
Observed Measurement: 3.78%
//
Compound: O=C(Nc1cnn2ccc(N3CCC[C@@H]3c3cc(F)ccc3F)nc12)N1CC[C@H](O)C1 [larotrectinib]
Measured On: UniProt:P51812
Observed Measurement: -7.4%

Exercise: Could you tell me which inhibition at 1 µM is on file for CO[C@]1(C(=O)N[C@@H](C)c2ccc(-n3cc(F)cn3)nc2)CC[C@H](c2nc(C)cc(Nc3cc(C)[nH]n3)n2)CC1 [pralsetinib] ?
Key: 23%

Exercise: Would you mind telling me what inhibition at 1 µM value was observed for CCN1CCN(c2ccc(Nc3cc(N(C)C(=O)Nc4c(Cl)c(OC)cc(OC)c4Cl)ncn3)cc2)CC1 [infigratinib] ?
Key: -7%

----------
# Test system: 134 cancer cell lines
# Run Description: Cell viability assay (ATPlite, 72 hours), IC50 on cancer cell line panel
# Reported Conditions: Homo sapiens, MG-63, read-out: IC50 in cell proliferation assay
Reported pIC50 by item:
Keep it numeric: pIC50 is minus log10 of the concentration in mol/L.

Given Smiles: C[C@@H](Oc1cc(-c2cnn(C3CCNCC3)c2)cnc1N)c1c(Cl)ccc(F)c1Cl
pIC50: 5.58

# next compound below
Exercise: Bench note: what pIC50 did `Cn1cc(-c2cc3c(N4CCN(c5ncc([C@@](C)(N)c6ccc(F)cc6)cn5)CC4)ncnn3c2)cn1` show?
Key: 4.95

----------
// values below are reported IC50
# System: 134 cancer cell lines
# Run Description: Cell viability assay (ATPlite, 72 hours), IC50 on cancer cell line panel
# Reported Conditions: Homo sapiens, LS-411N, read-out: IC50 in cell proliferation assay, LS411N cell line (BRAF p.V600E)
Please reply with the bare figure in µM and do not write the unit itself.

Compound: CC(=O)Nc1cccc(-n2c(=O)n(C3CC3)c(=O)c3c(Nc4ccc(I)cc4F)n(C)c(=O)c(C)c32)c1 [trametinib]
Observed Measurement: 0.009
//
Compound: C[C@H](Nc1ncnc2nc[nH]c12)c1cc2cccc(Cl)c2c(=O)n1-c1ccccc1 [duvelisib]
Observed Measurement: 26.3
//
Compound: CO[C@]1(C(=O)N[C@@H](C)c2ccc(-n3cc(F)cn3)nc2)CC[C@H](c2nc(C)cc(Nc3cc(C)[nH]n3)n2)CC1 [pralsetinib]
Observed Measurement: 25.6

// moving on: another record for IC50
Exercise: Entry under review: Cc1cc(Nc2ncc(Cl)c(Nc3ccccc3S(=O)(=O)C(C)C)n2)c(OC(C)C)cc1C1CCNCC1 [ceritinib] . Reported IC50?
Key: 1.97
